Property: pEC50; scope: individual compounds
Test system: PK1 neuroblastoma cells treated with TPrP
Assay: cells
Type: cell-based
Details: Neuroblastoma cell, read-out: Viability EC50
Please keep in mind that pEC50 is minus log10 of the molar concentration; only the number is needed.

As a guide, the following entries are already answered.
Cc1ccc(-c2nnc3c4ccccc4c(C)nn23)cc1S(=O)(=O)NC(C)(C)CO :: 8.29
CC(=O)c1cccc(Nc2nnc(Cc3ccncc3)c3ccccc23)c1 :: 8.20
COc1ccc(-c2nnc3c4ccccc4c(C)nn23)cc1S(=O)(=O)NC(C)(C)CO :: 7.01
Cc1ccc(-c2nnc3c4ccccc4c(C)nn23)cc1S(=O)(=O)N1CCN(C)CC1 :: 6.08
CNC(=O)c1cc2c(cn1)[nH]c1ccccc12 :: 5.49
COc1cc2c(cc1O)C[C@H]1c3c(cc(O)c(OC)c3-2)CCN1C :: 5.70
COc1ccc(-c2cc(=O)c3c(O)c(OC)c(O[C@H]4O[C@H](CO[C@@H]5O[C@@H](C)[C@H](O)[C@@H](O)[C@H]5O)[C@@H](O)[C@H](O)[C@H]4O)cc3o2)cc1 :: 5.68
COc1cc(OC)c2cc(-c3ccncc3)cnc2c1 :: 6.30
O=C(NCCCn1ccnc1)c1cnn2c(C(F)(F)F)cc(-c3ccccc3)nc12 :: 8.72
Cc1ccc(-c2cc(C(F)(F)F)n3ncc(C(=O)NCCCn4ccnc4)c3n2)cc1 :: 8.72

// below: pEC50 requested for another compound
Recall the recorded pEC50 for O=c1cc(-c2ccc(O)cc2)oc2cc(O)cc(O)c12 with PK1 neuroblastoma cells treated with TPrP and state it.
5.77

----------
Tested on: PK1 neuroblastoma cells treated with TPrP
Test: cells
Assay type: cell-based
Settings: Neuroblastoma cell, read-out: EC50 (NAD assay)
observation type: EC50

Bench note: what EC50 did Clc1ccc(Nc2nnc(Cc3ccncc3)c3ccccc23)cc1 [Vatalanib, reference compound] show?
195 nM

----------
System: PK1 neuroblastoma cells treated with TPrP
Test: cells
Type: cell-based
Details: Neuroblastoma cell, read-out: Viability EC50
Property: EC50; scope: individual compounds
Write the value in nM as a bare number.

As a guide, the following entries are already answered.
NS(=O)(=O)c1ccc(Nc2nc(-c3cc4ccccc4oc3=O)cs2)cc1 :: 57
CC1=C[C@@H]2c3cccc4[nH]cc(c34)C[C@H]2N(C)C1 :: 1600
O=c1cc(-c2ccc(O)cc2)oc2cc(O[C@@H]3O[C@H](CO)[C@@H](O)[C@H](O)[C@H]3OC3OC[C@](O)(CO)[C@H]3O)cc(O)c12 (some centres unmarked) :: 4600
NS(=O)(=O)c1ccc(Nc2nc(-c3ccncc3)cs2)cc1 :: 26

// below: EC50 requested for another compound
Bench note: what EC50 did COc1ccc(-c2cc(=O)c3c(OC)c(OC)c(OC)cc3o2)cc1OC show?
323

----------
Test system: PK1 neuroblastoma cells treated with TPrP
Assay: cells
Format: cell-based
Conditions: Neuroblastoma cell, read-out: Viability EC50
Property: pEC50; scope: individual compounds
Please keep in mind that pEC50 is minus log10 of the molar concentration; only the number is needed.

Bench note: what pEC50 did COc1ccc2cc3[n+](cc2c1OC)CCc1cc2c(cc1-3)OCO2 [SR1-711827, berberine chloride] show?
5.51

Bench note: what pEC50 did COc1ccc(-c2nnc3c4ccccc4c(C)nn23)cc1S(=O)(=O)NCc1cccnc1 show?
7.05

Bench note: what pEC50 did COCCNS(=O)(=O)c1cc(-c2nnc3c4ccccc4c(C)nn23)ccc1C show?
6.89

Bench note: what pEC50 did NS(=O)(=O)c1ccc(Nc2nc(-c3ccccc3)cs2)cc1 show?
6.51

Bench note: what pEC50 did NS(=O)(=O)c1ccc(Nc2nc(-c3ccc(F)cc3)cs2)cc1 show?
6.71

Bench note: what pEC50 did Clc1ccc(Nc2nnc(Cc3ccncc3)c3ccccc23)cc1 [Vatalanib, reference compound] show?
7.40

Bench note: what pEC50 did COc1ccc(-c2oc3cc(OC)c(OC)c(OC)c3c(=O)c2OC)cc1OC show?
6.21
